compounds and their reported Plant response rating, Galium
- Test system: galium (catchweed bedstraw, Galium aparine)
- assay.overview: Test A greenhouse herbicide test, postemergence
- Format: in vivo
- reported.conditions: 125 g ai/ha, 0 to 100 scale where 0 is no effect and 100 is complete control
readout.name: Plant response rating, Galium

molecule=CCc1sc2ccc(C)cc2c1-c1c(O)c(C)nn(C)c1=O study_system="galium (catchweed bedstraw, Galium aparine)" measured_result=90
molecule=Cc1nn(C)c(=O)c(-c2ccc(Cl)c3ccccc23)c1O study_system="galium (catchweed bedstraw, Galium aparine)" measured_result=100
molecule=Cc1nn(C)c(=O)c(-c2ccc(F)c3ccccc23)c1O study_system="galium (catchweed bedstraw, Galium aparine)" measured_result=80
molecule=CCCC(=O)Oc1c(C)nn(C)c(=O)c1-c1c(C)sc2ccc(C)cc12 study_system="galium (catchweed bedstraw, Galium aparine)" measured_result=100
molecule=COc1ccc2sc(C)c(-c3c(O)c(C)nn(C)c3=O)c2c1 study_system="galium (catchweed bedstraw, Galium aparine)" measured_result=60
molecule=CCC(=O)Oc1c(C)nn(C)c(=O)c1-c1ccc(F)c2ccccc12 study_system="galium (catchweed bedstraw, Galium aparine)" measured_result=100
molecule=CC(=O)Oc1cnn(C)c(=O)c1-c1c(C)sc2ccccc12 study_system="galium (catchweed bedstraw, Galium aparine)" measured_result=40
molecule=CCC(=O)Oc1c(C)nn(C)c(=O)c1-c1ccc(Cl)c2ccccc12 study_system="galium (catchweed bedstraw, Galium aparine)" measured_result=100
molecule=CCOc1ccc2cccc(-c3c(O)c(C)nn(C)c3=O)c2c1 study_system="galium (catchweed bedstraw, Galium aparine)" measured_result=10
